Values from patent US20260274892A1

Record form. Attribute: MIC. Fill in for each entry.
- Test system: Escherichia coli ATCC 25922
- run.description: Minimum inhibitory concentration (MIC), CLSI broth micro-dilution, E. coli
- Assay type: cell-based
- cond: Escherichia coli, ATCC25922, 22 h, Table 7, cation adjusted Mueller Hinton Broth + 0.002% Tween-80, 35° C.
Numbers only, in µM.

| compound | MIC / µM |
| --- | --- |
| Cc1nc(-c2ccc(C(C)(C)C)cc2)nc(C)c1C(=O)N[C@@H](CNS(N)(=O)=O)C(=O)N(C)[C@@H]1C(=O)N[C@@H](C)C(=O)N[C@H](C(=O)NCC#N)Cc2ccc(OC[C@H](O)CN)c(c2)-c2cc1ccc2OC[C@H](O)CN (racemic) | 0.21 |
| Cc1nc(-c2ccc(C(C)(C)C)cc2)nc(C)c1C(=O)N[C@@H](CCN)C(=O)N(C)[C@@H]1C(=O)N[C@@H](C)C(=O)N[C@H](C(=O)NCC#N)Cc2ccc(OC[C@H](N)CO)c(c2)-c2cc1ccc2O (racemic) | 0.25 |
| Cc1nc(-c2ccc(OC3CCCCC3)cc2)cc(N)c1C(=O)N[C@@H](CCN)C(=O)N(C)[C@@H]1C(=O)N[C@@H](C)C(=O)N[C@H](C(=O)NCC#N)Cc2ccc(OCCCN)c(c2)-c2cc1ccc2OCCCN (racemic) | 0.13 |

Each compound below has a reported value. Please supply its MIC.
1. Cc1nc(-c2ccc(C(C)(C)C)cc2)nc(C)c1C(=O)N[C@@H](CCN)C(=O)N(C)[C@@H]1C(=O)N[C@@H](C)C(=O)N[C@H](C(=O)NCC#N)Cc2ccc(O)c(c2)-c2cc1ccc2OCCCNC(=N)N (racemic)
2. Cc1nc(-c2ccc(OC3CCCCC3)cc2)nc(C)c1C(=O)N[C@@H](CCN)C(=O)N(C)[C@@H]1C(=O)N[C@@H](C)C(=O)N[C@H](C(=O)NCC#N)Cc2ccc(OC[C@H](O)CN)c(c2)-c2cc1ccc2OC[C@H](O)CN (racemic)

[out]
1. 0.5
2. 0.063
